- Tested Target: HLA-A*02:03
- Procedure Text: IEDB peptide-MHC binding, purified MHC/competitive/radioactivity; bounds were set here for any values at or beyond the usual limits of such assays
- Condition Set: source organism: Vaccinia virus WR
Below, each entry is listed alongside its reported pIC50.
# reply with the number alone; pIC50 is -log10 of concentration in mol/L

Give pIC50 for SIVCIVAAV
8.55

***
Give pIC50 for LVSDCASTI
7.77

Give pIC50 for YVILKDPRIA
6.45

Give pIC50 for LAISAVYFKA
6.44

Give pIC50 for NTDHPLSINV
6.23

---

Below, each entry is listed alongside its reported IC50.
- Tested Target: HLA-A*02:06
- Procedure Text: IEDB peptide-MHC binding, cellular MHC/competitive/fluorescence; bounds were set here for any values at or beyond the usual limits of such assays
- Condition Set: source organism: Hepatitis B virus
Kindly provide the numeric value in µM only, without the unit symbol.

Solved entries (count: 4):
Write down measured IC50 (HLA-A*02:06) for this sequence. HLYSHPIIL
9.45

Write down measured IC50 (HLA-A*02:06) for this sequence. CLRRFIIFL
10.1

Write down measured IC50 (HLA-A*02:06) for this sequence. RILTIPQSL
5.95

Write down measured IC50 (HLA-A*02:06) for this sequence. RVRGLYFPA
8.24

***
Write down measured IC50 (HLA-A*02:06) for this sequence. SMYPSCCCT
9.31
